Each entry below carries its recorded IC50.
target system: Kras and SOS1 (biotin-tagged human Kras loaded with GDP, His-tagged human SOS1) (Homo sapiens, UniProt P01116, G12D)
Construct: made in house; host or cells: E. coli (stated for Kras only)
Sequence (P01116 1-188 isoform P01116-2 G12D): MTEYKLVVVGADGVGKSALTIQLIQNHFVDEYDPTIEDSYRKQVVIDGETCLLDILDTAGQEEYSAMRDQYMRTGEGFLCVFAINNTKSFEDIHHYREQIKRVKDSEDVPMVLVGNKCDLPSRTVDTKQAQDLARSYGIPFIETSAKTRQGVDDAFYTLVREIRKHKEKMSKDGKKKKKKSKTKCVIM
test: Protein-protein interaction inhibition between Kras and SOS1 (KrasGl2D-SOS PPI) using AlphaScreen
Type: binding
applied conditions: AlphaScreen; biotin-tagged human Kras loaded with GDP, His-tagged human SOS1; read-out: KRAS G12D-SOS PPI IC50
Positions of bridges follow the written chain, without caps; N, C: chain ends. Non-standard residues stand in square brackets, D forms with d. Residues, ends and D or L forms follow the SMILES beside them. *: point of attachment. hPhe(3-Cl-4-CF3) = N[C@@H](CCc1ccc(C(F)(F)F)c(Cl)c1)C(=O)O; NMePhe(4-Br) = CN[C@@H](Cc1ccc(Br)cc1)C(=O)O; NMePhe(4-Me) = CN[C@@H](Cc1ccc(C)cc1)C(=O)O; NMeI = CC[C@H](C)[C@H](NC)C(=O)O; NMeD = CN[C@@H](CC(=O)O)C(=O)O; NMeL = CN[C@@H](CC(C)C)C(=O)O; NMeV = CN[C@H](C(=O)O)C(C)C; Piperidide = C1CCN(*)CC1; Pyrrolidide = C1CCN(*)C1; Ac5c = NC1(C(=O)O)CCCC1; Sar = CNCC(=O)O
A number alone suffices; assume nM.

>  <compound>
CC[C@H](C)[C@@H]1NC(=O)[C@H](CC(C)C)N(C)C(=O)C[C@@H](C(=O)N2CCCC2)N(C)C(=O)[C@H]([C@@H](C)CC)N(C)C(=O)C2(CCCC2)NC(=O)[C@@H]2CCCN2C(=O)[C@H](CCc2ccc(C(F)(F)F)c(Cl)c2)NC(=O)CN(C)C(=O)[C@H](Cc2ccc(C)cc2)N(C)C(=O)CN(C)C(=O)CN(C)C1=O [Compound 1790] ([NMeL]I[Sar][Sar][NMePhe(4-Me)][Sar][hPhe(3-Cl-4-CF3)]P[Ac5c][NMeI][NMeD]-Pyrrolidide; lactam N-11)

>  <readout number>
0.7

$$$$

Moving on to the next compound.
Inquiry: Please list IC50 recorded for the compound CC[C@H](C)[C@@H]1NC(=O)[C@H](CC(C)C)N(C)C(=O)C[C@@H](C(=O)N2CCCCC2)N(C)C(=O)[C@H](C(C)C)N(C)C(=O)C2(CCCC2)NC(=O)[C@@H]2CCCN2C(=O)[C@H](CCc2ccc(C(F)(F)F)c(Cl)c2)NC(=O)CN(C)C(=O)[C@H](Cc2ccc(Br)cc2)N(C)C(=O)CN(C)C(=O)CN(C)C1=O [Compound 1576] ([NMeL]I[Sar][Sar][NMePhe(4-Br)][Sar][hPhe(3-Cl-4-CF3)]P[Ac5c][NMeV][NMeD]-Piperidide; lactam N-11)
Reply text: 5.1

Reference source: patent US12371454B2
